Source listed as patent US9127001B2.

Molecular target: Human TASK-1 channels (Homo sapiens (Human), UniProt O14649)
Sequence (O14649 whole entry): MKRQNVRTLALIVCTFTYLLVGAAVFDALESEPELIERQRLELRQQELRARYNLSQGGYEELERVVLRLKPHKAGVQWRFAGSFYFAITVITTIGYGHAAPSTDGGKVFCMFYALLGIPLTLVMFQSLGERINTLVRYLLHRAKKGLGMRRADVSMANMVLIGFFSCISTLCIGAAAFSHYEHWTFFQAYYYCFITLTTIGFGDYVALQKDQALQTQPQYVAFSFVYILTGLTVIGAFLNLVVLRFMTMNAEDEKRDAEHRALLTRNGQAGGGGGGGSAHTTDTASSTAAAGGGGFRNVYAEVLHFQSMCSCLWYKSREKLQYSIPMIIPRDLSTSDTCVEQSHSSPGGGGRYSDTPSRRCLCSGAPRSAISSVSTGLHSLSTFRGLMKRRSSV
Assay: Activity on the TASK-1 channel in Xenopus oocytes (two-microelectrode voltage clamp)
Assay type: cell-based
ATTRIBUTE_MEASURED: inhibition at 5 µM (%)

CN(C)C(=O)N1CCc2c(c(-c3cccc(C#N)c3)nn2Cc2ccc(F)cc2F)C1 [Example 12d]
74
COCC(=O)N1CCc2c(c(-c3cccc(C#N)c3)nn2Cc2ccc(F)cc2F)C1
80
CC(C)NC(=O)N1CCc2c(c(-c3cccc(C#N)c3)nn2Cc2ccc(F)cc2F)C1 [Example 11a]
76
CC(=O)N1CCc2c(c(-c3cccc(C)c3)nn2Cc2ccc(Cl)s2)C1
75

====

Target: Human TASK-1 channels (Homo sapiens (Human), UniProt O14649)
Assay: Activity on the TASK-1 channel in Xenopus oocytes (two-microelectrode voltage clamp)
Details: human TASK-1 expressed in Xenopus oocytes, currents during pulses to 40 mV, room temperature
ATTRIBUTE_MEASURED: IC50 (nM)

Solved entries:
CC(=O)N1CCc2c(c(-c3ccc(F)cc3)nn2Cc2ccc(F)cc2F)C1
598
CC(=O)N1CCc2c(c(-c3ccc(F)c(C#N)c3)nn2Cc2ccc(F)cc2F)C1
1640
CC(C)C(=O)N1CCc2c(c(-c3cccc(C#N)c3)nn2Cc2ccc(F)cc2F)C1
19
N#Cc1cccc(-c2nn(Cc3ccc(F)cc3F)c3c2CN(C(=O)c2ccncc2F)CC3)c1
416
N#Cc1cccc(-c2nn(Cc3ccc(F)cc3F)c3c2CN(C(=O)C2CCOC2)CC3)c1 (stereo not shown)
890

1. CC1(C(=O)N2CCc3c(c(-c4cccc(C#N)c4)nn3Cc3ccc(F)cc3F)C2)COC1
2. CC(=O)N1CCc2c(c(-c3ccc(F)cc3)nn2C(C)c2ccc(F)cc2)C1 (single isomer, unassigned; (-)) [Example 6bf]
3. CC(=O)N1CCc2c(c(-c3cccc(OC(F)(F)F)c3)nn2C(C)c2ccc(F)cc2)C1 (stereo not shown)
4. CC(C)(C)C(=O)N1CCc2c(c(-c3cccc(C#N)c3)nn2Cc2ccc(F)cc2F)C1
Ranking field: IC50; order: falling. Hello, could you send the labels back in the order asked? Thank you.
3, 2, 1, 4

====

Biological target: Human TASK-1 channels (Homo sapiens (Human), UniProt O14649)
Test: Activity on the TASK-1 channel in Xenopus oocytes (two-microelectrode voltage clamp)
Type: cell-based
ATTRIBUTE_MEASURED: inhibition at 5 µM (%)

CC(=O)N1CCc2c(c(-c3cccc(C#N)c3)nn2Cc2ccc(Cl)s2)C1 [Example 6ai]
79
CC(=O)N1CCc2c(c(-c3cccc(C)c3)nn2Cc2ccccc2F)C1 [Example 6bb]
82
CCOC(=O)N1CCc2c(c(-c3cccc(C#N)c3)nn2Cc2ccc(F)cc2F)C1 [Example 8y]
77
COc1cccnc1Cn1nc(-c2cccc(C(F)(F)F)c2)c2c1CCN(C(C)=O)C2 [Example 6s]
83
CC(=O)N1CCc2c(c(-c3ccsc3)nn2Cc2ccc(F)cc2F)C1 [Example 6al]
75
CC(c1ccc(F)cc1)n1nc(-c2ccc(F)cc2)c2c1CCN(C(=O)NC(C)(C)C)C2 (single isomer, unassigned) [Example 11f]
58
COc1ccccc1Cn1nc(-c2cccc(C(F)(F)F)c2)c2c1CCN(C(C)=O)C2 [Example 6bc]
70
CC(=O)N1CCc2c(c(-c3cccc(C(F)(F)F)c3)nn2Cc2ccc(C)cc2F)C1 [Example 6bn]
81
